Source: patent US12414935B2

- System: C. parvum
- Method Notes: C. parvum in vitro EC50 assay in HCT-8 cells
- Format: cell-based
- Cond: Cryptosporidium parvum, HCT8 cells, 24 hr, Mean +/- S.D., N = 3, 9 pt curve
pEC50: −log10 of the molar value.
Recorded Endpoint: pEC50

(a) COc1ccc(NC(=O)N2CCCCN3[C@H](CN(C)C)[C@H](c4ccc(C#Cc5ccccc5)cc4)[C@@H]3C2)cc1
(b) CC(=O)Oc1ccccc1C(=O)Nc1ncc([N+](=O)[O-])s1 [Nitazoxanide, reference compound]
(c) COc1ccc(NC(=O)N2CCCCN3[C@H](CN(C)S(C)(=O)=O)[C@H](c4ccc(C#Cc5ccccc5)cc4)[C@@H]3C2)cc1
stdin: Ranking field: pEC50; order: falling. List labels; respect the requested ordering.
stdout: c, a, b
(c: 7.96, a: 7.48, b: 5.66)
